# Tested on: Plasmodium falciparum
# ASSAY INFO: MMV: P. falciparum NF54 functionally mature Stage V gametocytes were incubated for 24 hr in the presence of the test compounds. Gamete formation was then triggered by addition of 2uM xantheurenic acid and temperature decrease to ~20C. Male gamete exflagellation was recorded and analysed by automated microscopy after 20 min. All compounds were tested in 4 independent experiments and data presented here is the mean.
# Assay type: functional
# Design: concentration or dose not given beside the values
Please provide measured inhibition for the entries that follow.
Give the figure together with its unit, number first.

Use these answered entries as a reference point.
Incoming: GET /values?readout=inhibition&system=Plasmodium falciparum&item= Cc1cccc(Nc2nc(N)c3ccccc3n2)c1.Cl
Outgoing: -38.3%

Incoming: GET /values?readout=inhibition&system=Plasmodium falciparum&item= CC(C)(C)c1ccc(C2CC3=Nc4ccccc4N(C(=O)c4ccccc4Cl)C(c4ccc(F)cc4)C3=C(O)C2)cc1 (stereo not drawn)
Outgoing: -39.9%

For the next question, use this compound.
Incoming: GET /values?readout=inhibition&system=Plasmodium falciparum&item= COc1cccc(NC(=O)[C@H](C(C)C)n2c(=O)[nH]c3ccccc3c2=O)c1
Outgoing: 70.9%

====

# System: Plasmodium falciparum
# ASSAY INFO: MMV: P. falciparum NF54 functionally mature Stage V gametocytes were incubated for 24 hr in the presence of the test compounds. Gamete formation was then triggered by addition of 2uM xantheurenic acid and temperature decrease to ~20C. Male gamete exflagellation was recorded and analysed by automated microscopy after 20 min. All compounds were tested in 4 independent experiments and data presented here is the mean.
# Assay type: functional
# Set-up: concentration or dose not given beside the values
RECORDED METRIC: inhibition (%)
Answers are plain numbers, in %.

Incoming: GET /values?readout=inhibition&system=Plasmodium falciparum&item= Oc1ccccc1CN1CCC2(CCCN(Cc3ccccc3F)C2)C1 (stereo not drawn)
Outgoing: 22.9

Go through the list and state inhibition for each entry.
1. Oc1ccc(C(=C(Cl)Cl)c2ccc(O)cc2)cc1
2. CCOC(=O)C1CCN(C(=O)CN2C(=O)c3ccccc3C2c2c[nH]c3ccccc23)CC1 (stereo not drawn)
3. OC(CNC1CCCCC1)Cn1c2ccccc2c2ccccc21 (stereo not drawn)
4. Cl.OC(CNCc1ccccc1)Cn1c2ccccc2c2ccccc21 (stereo not drawn)
5. CCc1c(C)c(=N)c2ccccc2n1C.I

Outgoing:
1: 5.51; 2: 32.6; 3: 12.1; 4: -10.2; 5: -21.8

====

# Tested on: Plasmodium falciparum
# ASSAY INFO: MMV: P. falciparum NF54 functionally mature Stage V gametocytes were incubated for 24 hr in the presence of the test compounds. Gamete formation was then triggered by addition of 2uM xantheurenic acid and temperature decrease to ~20C. Male gamete exflagellation was recorded and analysed by automated microscopy after 20 min. All compounds were tested in 4 independent experiments and data presented here is the mean.
# Type: functional
# Parameters: concentration or dose not given beside the values
Please provide measured inhibition for the entries that follow.

Use these answered entries as a reference point.
Incoming: GET /values?readout=inhibition&system=Plasmodium falciparum&item= CCOc1cc(Br)c(C(C)NC(=O)c2cccc(OC)c2)cc1OCC (stereo not given)
Outgoing: 10.3%

Incoming: GET /values?readout=inhibition&system=Plasmodium falciparum&item= CCOc1ccc(-n2cc(-c3ccccc3)c3c(SCc4cc(C)ccc4C)ncnc32)cc1
Outgoing: 13%

Incoming: GET /values?readout=inhibition&system=Plasmodium falciparum&item= CN(C)c1ccc(N2C(N)=NC(N)=NC2(C)C)cc1
Outgoing: 71.6%

Incoming: GET /values?readout=inhibition&system=Plasmodium falciparum&item= COc1ccc(C(=O)Nc2nonc2-c2ccc(OC)c(OC)c2)cc1Cl
Outgoing: 36.3%

Incoming: GET /values?readout=inhibition&system=Plasmodium falciparum&item= Cl.Clc1cc(Br)ccc1-c1ccc(CNCC2CCNCC2)o1
Outgoing: 74.1%

Incoming: GET /values?readout=inhibition&system=Plasmodium falciparum&item= O=C(Nc1cccc(C2=NCCN2)c1)Nc1cccc(C2=NCCN2)c1 [IMIDOCARB]
Outgoing: -36.7%

Incoming: GET /values?readout=inhibition&system=Plasmodium falciparum&item= COc1ccc(CN2CCCC(C(=O)c3ccc(C(F)(F)F)cc3)C2)c(O)c1 (stereo not given)
Outgoing: 36.1%

Incoming: GET /values?readout=inhibition&system=Plasmodium falciparum&item= Nc1ccc(-c2nc3cc(Cc4ccc5[nH]c(-c6ccc(N)cc6)nc5c4)ccc3[nH]2)cc1
Outgoing: 26.6%

Go through the list and state inhibition for each entry.
1. COc1ccc2nc(C)cc(Nc3cccc(O)c3)c2c1.Cl
2. CSc1ccccc1C(=O)Nc1nc(-c2ccccn2)cs1

Outgoing:
1. -12.1%
2. 20.5%
